# study.target: T1, Rb^P P595L (human, UniProt P06400 380-788, P595L)
# T1 construct: also called variant 35
# T1 sequence (looked up): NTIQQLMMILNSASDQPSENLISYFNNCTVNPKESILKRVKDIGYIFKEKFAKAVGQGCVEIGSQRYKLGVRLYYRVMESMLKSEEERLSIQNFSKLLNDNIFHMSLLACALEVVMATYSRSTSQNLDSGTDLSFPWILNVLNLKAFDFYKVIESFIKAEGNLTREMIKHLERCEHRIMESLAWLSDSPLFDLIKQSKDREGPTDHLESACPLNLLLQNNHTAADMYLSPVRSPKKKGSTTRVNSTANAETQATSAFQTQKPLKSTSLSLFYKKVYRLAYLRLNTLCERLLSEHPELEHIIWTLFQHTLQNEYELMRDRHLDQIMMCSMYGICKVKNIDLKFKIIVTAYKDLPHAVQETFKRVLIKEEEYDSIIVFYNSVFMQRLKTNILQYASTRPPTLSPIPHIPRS
# assay.remarks: fluorescence polarisation; 25 °C; unlabeled Rb^P titrated against 1.5 nM TMR-E2F1^TD or 7.5 nM TMR-E7^LxCxE; 25 mM Tris pH 8.0, 200 mM NaCl, 1 mM DTT, 0.1% Tween-20; 2 min incubation; quadratic fit; apparent Kd for the variants, Kd for WT
# details: both partners purified
pKd: −log10 of the molar value. No end group written: not given here. TMR = tetramethyl rhodamine dye

binder | pKd
DLYCYEQLN (also: TMR label, position not given here, source: synthetic peptide, bought: GenScript) [TMR-E7^LxCxE, LxCxE peptide of the E7 oncoprotein from HPV] | 7.85
{TMR}-GEGIRDLFDCDFGDLTPLD (also called E2F^TD; source: synthetic peptide, bought: GenScript) [TMR-E2F1^TD, peptide of the E2F1 transactivation domain] | 7.34

The measurements presented in this section are drawn from paper PMC11931385.
